Origin of the recorded values: patent EP0951284B1

test system: MAO-A; assay: Inhibition of MAO activity ex vivo (brain tissue), 5-HT substrate; assay type: in vivo, mice; details: mouse brain tissue
Counter-ions that a name gives are not always drawn.
Listed here: items and their measured MAO-A Inhibition Ex vivo ED50.
Your answer should be a plain number; it is taken to be in µmol/kg.

Check out these entries, answers already filled in.
C#CCNCCc1cccc(OC(=O)N(C)CCC)c1 [Compound 14] | 4.5
C#CCN(C)C(C)Cc1cccc(OC(=O)N(C)C2CCCCC2)c1 (racemic) [Compound 28, HCl] | 109

Please look at the following molecule next.
## Input Form field: reported MAO-A Inhibition Ex vivo ED50 of C#CCN(C)CCc1cccc(OC(=O)N(C)C)c1 [Compound 12]
## Output 4

====

Listed here: items and their measured selectivity ratio.
test: Acute toxicity in mice (sub-cutaneous, lethality within 6 hours); conditions: mouse, in vivo, sc; LD50 divided by ED50 (acetylcholine esterase ex vivo); read-out: Therapeutic Ratio (LD/AC)
Where a name gives a salt, the structure may show the parent alone.
Give the figure only, with no unit attached.

CN(C)CCc1cccc(OC(=O)N(C)C)c1 [Compound 10] | 8
CNCCc1cccc(OC(=O)N(C)C)c1 [Compound 3] | 1.5
C#CCNC(C)Cc1cccc(OC(=O)N(C)C)c1 (centres unmarked) [Compound 16] | 18.3

## Input Form field: reported selectivity ratio of C#CCNCCc1cccc(OC(=O)N(C)C)c1 [Compound 11]
## Output 13.8

## Input Repeat for the following compound: C#CCN(C)CCc1cccc(OC(=O)N(C)CC)c1 [Compound 15]
## Output 8.6

## Input Repeat for the following compound: C#CCN(C)C(C)Cc1cccc(OC(=O)N(C)C)c1 (racemic) [Compound 20, HCl]
## Output 11.3

## Input Repeat for the following compound: C#CCNCCc1cccc(OC(=O)N(C)CC)c1 [Compound 13]
## Output 8.5

## Input Repeat for the following compound: C#CCNC(C)Cc1cccc(OC(=O)N(C)CC)c1 (centres unmarked) [Compound 17]
## Output 9.4

## Input Repeat for the following compound: C#CCN(C)CCc1cccc(OC(=O)N(C)C)c1 [Compound 12]
## Output 11.5

## Input Repeat for the following compound: C#CCNC(C)Cc1cccc(OC(=O)N(C)CCC)c1 (racemic) [Compound 19, HCl]
## Output 7.6

====

Biological target: MAO-B (Rattus norvegicus, UniProt P19643)
Sequence (P19643 1-520): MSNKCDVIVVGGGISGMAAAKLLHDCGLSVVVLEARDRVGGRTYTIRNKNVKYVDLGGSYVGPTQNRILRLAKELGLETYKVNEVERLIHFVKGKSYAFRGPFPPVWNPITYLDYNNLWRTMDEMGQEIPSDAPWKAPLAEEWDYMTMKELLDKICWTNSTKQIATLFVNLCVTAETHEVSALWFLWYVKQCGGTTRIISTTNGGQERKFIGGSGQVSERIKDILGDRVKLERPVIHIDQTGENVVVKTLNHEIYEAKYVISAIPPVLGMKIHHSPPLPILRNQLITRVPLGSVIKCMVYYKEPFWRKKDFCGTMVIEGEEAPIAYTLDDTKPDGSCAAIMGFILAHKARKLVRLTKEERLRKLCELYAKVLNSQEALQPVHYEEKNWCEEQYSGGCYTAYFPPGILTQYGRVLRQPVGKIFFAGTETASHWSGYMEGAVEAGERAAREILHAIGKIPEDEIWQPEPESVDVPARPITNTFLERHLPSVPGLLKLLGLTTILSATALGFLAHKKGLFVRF
pIC50: −log10 of the molar value. Where a name gives a salt, the structure may show the parent alone.
Short version: pIC50 at least 6 is Y, less is N.

C#CCNCCc1cccc(OC(=O)N(C)CC)c1 | N
C#CCN(C)C(C)Cc1cccc(OC(=O)N(C)C)c1 (racemic) [Compound 20, HCl] | Y
C#CCNCCc1cccc(OC(=O)N(C)C)c1 | N

## Input Determine whether this compound has pIC50 no lower than 6: C#CCNCCc1cccc(OC(=O)N(C)CCC)c1
## Output Y

## Input Repeat for the following compound: C#CCN(C)CCc1cccc(OC(=O)N(C)C)c1
## Output N
